Hey, just so you know, these numbers are from PubChem BioAssay AID1259407.

# Test system: CCRIS mutagenicity, Ames/micronucleus/aberration tests
# PROTOCOL_TEXT: CCRIS mutagenicity studies
# CONDITION_DESCRIPTION: Test System: AMES SALMONELLA TYPHIMURIUM; Strain/Indicator: TA1535; Metabolic Activation: RAT, LIVER, S-9, KC 500; Method: PREINCUBATION
The source made the active and inactive calls. The rule behind the calls is not given here.
METRIC_NAME: mutagenic call

Some entries whose results are on file:
TEST_SMILES	mutagenic call
O=c1n(Cl)c(=O)n(Cl)c(=O)n1Cl	inactive; negative
Cc1ccc(C)cc1	inactive; negative
Cl	inactive; negative
OCC(O)CO	inactive; negative
CC(C)CO	inactive; negative

Could you now look at the following compound, please?
Incoming: Can you look up the measured mutagenic call of C1N2CN3CN1CN(C2)C3 for me?
Outgoing: inactive; negative

* * *

# Tested on: CCRIS mutagenicity, Ames/micronucleus/aberration tests
# PROTOCOL_TEXT: CCRIS mutagenicity studies
# CONDITION_DESCRIPTION: Test System: AMES SALMONELLA TYPHIMURIUM; Strain/Indicator: TA1535; Metabolic Activation: RAT, LIVER, S-9, PHENOBARBITAL; Method: STANDARD PLATE
The source made the active and inactive calls. The rule behind the calls is not given here.
Tick one outcome: active, inactive

Incoming: What did this assay record as the result for [Cr] ?
Outgoing: inactive

Incoming: What did this assay record as the result for O=C1[C@H]2CC=CC[C@H]2C(=O)N1SC(Cl)(Cl)Cl ?
Outgoing: active

Incoming: What did this assay record as the result for [Co] ?
Outgoing: inactive

Incoming: What did this assay record as the result for [Zn] ?
Outgoing: inactive

Incoming: What did this assay record as the result for Nc1ccc2cc3ccccc3cc2c1 ?
Outgoing: active

Incoming: What did this assay record as the result for C[n+]1ccccc1-c1cccc[n+]1C ?
Outgoing: inactive

Incoming: What did this assay record as the result for Cl ?
Outgoing: inactive

* * *

# Test system: CCRIS mutagenicity, Ames/micronucleus/aberration tests
# PROTOCOL_TEXT: CCRIS mutagenicity studies
# CONDITION_DESCRIPTION: Test System: Ames Salmonella typhimurium; Strain/Indicator: TA102; Metabolic Activation: Rat, Liver, S-9, Aroclor 1254 in 0.154 M KCl; Method: Preincubation
The source made the active and inactive calls. How the calls were made is not given here.
Tick one outcome: active, inactive

Incoming: What did this assay record as the result for O=c1c(O)c(-c2ccc(O)c(O)c2)oc2cc(O)cc(O)c12 ?
Outgoing: active

Incoming: What did this assay record as the result for O=C(O[C@H]1Cc2c(O)cc(O)cc2O[C@H]1c1ccc(O)c(O)c1)c1cc(O)c(O)c(O)c1 ?
Outgoing: inactive

Incoming: What did this assay record as the result for Oc1cc(O)c2c(c1)O[C@H](c1ccc(O)c(O)c1)[C@@H](O)C2 ?
Outgoing: inactive

Incoming: What did this assay record as the result for O=C1c2c(O)cc(O)cc2O[C@H](c2ccc(O)c(O)c2)[C@H]1O ?
Outgoing: inactive

* * *

# Test system: CCRIS mutagenicity, Ames/micronucleus/aberration tests
# PROTOCOL_TEXT: CCRIS mutagenicity studies
# CONDITION_DESCRIPTION: Test System: AMES SALMONELLA TYPHIMURIUM; Strain/Indicator: TA97A; Metabolic Activation: RAT, LIVER, S-9, AROCLOR 1254; Method: STANDARD PLATE
# Description: The CCRIS database contains chemical records with carcinogenicity, mutagenicity, tumor promotion, and tumor inhibition test results. It was developed by the National Cancer Institute (NCI). Data are derived from studies cited in primary journals, current awareness tools, NCI reports, and other sources. Test results have been reviewed by experts in carcinogenesis and mutagenesis. CCRIS provides historical information from the years 1985 - 2011. It is no longer updated. […]
Calls of active or inactive are those of the source. No rule for the calls is given here.
Tick one outcome: 1.0 (active), 0.0 (inactive)

Incoming: What did this assay record as the result for O=C1[C@H]2CC=CC[C@H]2C(=O)N1SC(Cl)(Cl)Cl ?
Outgoing: 0.0

Incoming: What did this assay record as the result for Nc1ccc2cc3ccccc3cc2c1 ?
Outgoing: 1.0

Incoming: What did this assay record as the result for N=C1C=CC(=C(c2ccc(N)cc2)c2ccc(N)cc2)C=C1 ?
Outgoing: 0.0

Incoming: What did this assay record as the result for CCN(CC)CCCC(C)Nc1ccnc2cc(Cl)ccc12 (configuration not stated) ?
Outgoing: 0.0

Incoming: What did this assay record as the result for Cc1ccc(C)c(C)c1 ?
Outgoing: 0.0

Incoming: What did this assay record as the result for COc1cccc2c1C(=O)c1c(O)c3c(c(O)c1C2=O)C[C@@](O)(C(=O)CO)C[C@@H]3O[C@H]1C[C@H](N)[C@H](O)[C@H](C)O1 ?
Outgoing: 0.0

Incoming: What did this assay record as the result for CCOCC=O ?
Outgoing: 0.0

* * *

# System: CCRIS mutagenicity, Ames/micronucleus/aberration tests
# PROTOCOL_TEXT: CCRIS mutagenicity studies
# CONDITION_DESCRIPTION: Test System: AMES SALMONELLA TYPHIMURIUM; Strain/Indicator: TA1538; Metabolic Activation: NONE; Method: STANDARD PLATE
Activity calls are given as the source filed them. The rule behind the calls is not given here.
Tick one outcome: 1 (active), -1 (inactive)

Incoming: What did this assay record as the result for O=[N+]([O-])c1cccc2[nH]c3ccccc3c12 ?
Outgoing: 1

Incoming: What did this assay record as the result for O=C(O)c1cc(Cl)ccc1O ?
Outgoing: -1

Incoming: What did this assay record as the result for COC/C(=C/c1ccccc1)OC ?
Outgoing: -1

Incoming: What did this assay record as the result for CC(C)Oc1ccc2c(=O)c(-c3ccccc3)coc2c1 ?
Outgoing: -1

Incoming: What did this assay record as the result for CN(C)C(=S)SSC(=S)N(C)C ?
Outgoing: 1

Incoming: What did this assay record as the result for Cc1c(C)c2c(c(C)c1O)CC[C@@](C)(CCC[C@H](C)CCC[C@H](C)CCCC(C)C)O2 ?
Outgoing: -1

Incoming: What did this assay record as the result for C=C1CC[C@H]2C[C@@H]1C2(C)C ?
Outgoing: -1

Incoming: What did this assay record as the result for Cc1ccc(O)c(N)c1 ?
Outgoing: -1

Incoming: What did this assay record as the result for C/C=C/c1cc(OC)c(OC)cc1OC ?
Outgoing: -1

Incoming: What did this assay record as the result for CC(O)CN1CC(C)OC1=O (centres undefined) ?
Outgoing: -1

Incoming: What did this assay record as the result for O=C(O)CCCC[C@@H]1SC[C@@H]2NC(=O)N[C@@H]21 ?
Outgoing: -1

Incoming: What did this assay record as the result for O=C(C(=O)c1ccccc1)c1ccccc1 ?
Outgoing: -1

Incoming: What did this assay record as the result for Cc1ccccc1N ?
Outgoing: -1

Incoming: What did this assay record as the result for CC(=O)Oc1ccccc1C(=O)O ?
Outgoing: -1

* * *

# System: CCRIS mutagenicity, Ames/micronucleus/aberration tests
# PROTOCOL_TEXT: CCRIS mutagenicity studies
# CONDITION_DESCRIPTION: Test System: AMES SALMONELLA TYPHIMURIUM; Strain/Indicator: TA104; Metabolic Activation: NONE; Method: STANDARD PLATE
The source made the active and inactive calls. No rule for the calls is given here.
Tick one outcome: active, inactive

Incoming: What did this assay record as the result for COc1cccc2c1C(=O)c1c(O)c3c(c(O)c1C2=O)C[C@@](O)(C(C)=NNC(=O)c1ccccc1)C[C@@H]3O[C@H]1C[C@H](N)[C@H](O)[C@H](C)O1 ?
Outgoing: inactive

Incoming: What did this assay record as the result for CC1COc2c(N3CCN(C)CC3)c(F)cc3c(=O)c(C(=O)O)cn1c23 (centres undefined) ?
Outgoing: inactive

Incoming: What did this assay record as the result for COC(=O)c1oc([N+](=O)[O-])c(-c2ccccc2)c1-c1ccccc1 ?
Outgoing: active

Incoming: What did this assay record as the result for CC(=O)[C@]1(O)Cc2c(O)c3c(c(O)c2[C@@H](O[C@H]2C[C@H](N)[C@H](O)[C@H](C)O2)C1)C(=O)c1c(O)cccc1C3=O ?
Outgoing: inactive

* * *

# Tested on: CCRIS mutagenicity, Ames/micronucleus/aberration tests
# PROTOCOL_TEXT: CCRIS mutagenicity studies
# CONDITION_DESCRIPTION: Test System: AMES SALMONELLA TYPHIMURIUM; Strain/Indicator: TA7002; Metabolic Activation: NONE; Method: FLUCTUATION (MICROTITER)
The source made the active and inactive calls. The rule behind the calls is not given here.
METRIC_NAME: mutagenic call

Some entries whose results are on file:
COMPOUND	mutagenic call
CC(C)CON=O	inactive; negative
CS(C)=O	inactive; negative
O=c1c(O)c(-c2ccc(O)c(O)c2)oc2cc(O)cc(O)c12	active; positive
CCC1CO1 (configuration not stated)	inactive; negative
CC(C)(OO)c1ccccc1	active; positive
Nc1ncn([C@@H]2O[C@H](CO)[C@@H](O)[C@H]2O)c(=O)n1	inactive; negative

Could you now look at the following compound, please?
Incoming: Can you look up the measured mutagenic call of Nc1ccc(Oc2ccc(N)cc2)cc1 for me?
Outgoing: inactive; negative
